test: Immunostimulatory activity in polymorphonuclear leukocytes (unknown origin) assessed as induction of oxidative burst after 40 mins by fluorescence assay relative to ingenol 3-angelate; assay type: functional
Give Emax for every item shown.
Numbers only, in %.

Field: example entries. Status: answers known.
CC1=C[C@]23C(=O)[C@@H](C=C(CO)[C@@H](O)[C@]2(O)[C@H]1OC(=O)c1ccccc1Br)[C@H]1[C@@H](C[C@H]3C)C1(C)C    99
CC1=C[C@]23C(=O)[C@@H](C=C(CO)[C@@H](O)[C@]2(O)[C@H]1OC(=O)c1ccccc1)[C@H]1[C@@H](C[C@H]3C)C1(C)C    110
COc1cccc(N)c1C(=O)O[C@H]1C(C)=C[C@]23C(=O)[C@@H](C=C(CO)[C@@H](O)[C@]12O)[C@H]1[C@@H](C[C@H]3C)C1(C)C    109
CC1=C[C@]23C(=O)[C@@H](C=C(CO)[C@@H](O)[C@]2(O)[C@H]1OC(=O)c1ccccc1-c1ccccc1)[C@H]1[C@@H](C[C@H]3C)C1(C)C    105
CNc1cccc(C)c1C(=O)O[C@H]1C(C)=C[C@]23C(=O)[C@@H](C=C(CO)[C@@H](O)[C@]12O)[C@H]1[C@@H](C[C@H]3C)C1(C)C    136
CC1=C[C@]23C(=O)[C@@H](C=C(CO)[C@@H](O)[C@]2(O)[C@H]1OC(=O)c1ccccc1N)[C@H]1[C@@H](C[C@H]3C)C1(C)C    116

Let's switch to this compound now.
Ask | Give reported Emax value for CC1=C[C@]23C(=O)[C@@H](C=C(CO)[C@@H](O)[C@]2(O)[C@H]1OC(=O)c1c(C)cccc1NCc1ccccc1)[C@H]1[C@@H](C[C@H]3C)C1(C)C
Reply | 103

----------
experiment: Chemical stability of the compound in aqueous buffer with less than 30% organic solvent assessed as compound recovery at pH 7.4 measured over 16 hrs by HPLC analysis; assay type: physicochemical; settings: read-out: Drug recovery
Give remaining at 16 h for every item shown.
Give bare numbers, in %.

CC1=C[C@]23C(=O)[C@@H](C=C(CO)[C@@H](O)[C@]2(O)[C@H]1OC(=O)c1ccccc1Oc1ccccc1)[C@H]1[C@@H](C[C@H]3C)C1(C)C    80
CCCCCCCCCCCCCCCCNc1ccccc1C(=O)O[C@H]1C(C)=C[C@]23C(=O)[C@@H](C=C(CO)[C@@H](O)[C@]12O)[C@H]1[C@@H](C[C@H]3C)C1(C)C    90
CC1=C[C@]23C(=O)[C@@H](C=C(CO)[C@@H](O)[C@]2(O)[C@H]1OC(=O)c1c(N)cccc1Cl)[C@H]1[C@@H](C[C@H]3C)C1(C)C    93

Let's switch to this compound now.
Ask | Give reported remaining at 16 h value for CC1=C[C@]23C(=O)[C@@H](C=C(CO)[C@@H](O)[C@]2(O)[C@H]1OC(=O)c1ccccc1N)[C@H]1[C@@H](C[C@H]3C)C1(C)C
Reply | 58

----------
Give Emax for every item shown.
tested on: Keratinocyte; assay: Induction of proimflammatory activity in human primary epidermal keratinocytes assessed as TNFalpha release after 6 hrs relative to ingenol 3-angelate; format: functional
Numbers only, in %.

Field: example entries. Status: answers known.
COc1cccc(NCc2ccccc2)c1C(=O)O[C@H]1C(C)=C[C@]23C(=O)[C@@H](C=C(CO)[C@@H](O)[C@]12O)[C@H]1[C@@H](C[C@H]3C)C1(C)C    120
CC(=O)Nc1cccc(C)c1C(=O)O[C@H]1C(C)=C[C@]23C(=O)[C@@H](C=C(CO)[C@@H](O)[C@]12O)[C@H]1[C@@H](C[C@H]3C)C1(C)C    92
CC1=C[C@]23C(=O)[C@@H](C=C(CO)[C@@H](O)[C@]2(O)[C@H]1OC(=O)c1ccccc1Oc1ccccc1)[C@H]1[C@@H](C[C@H]3C)C1(C)C    86
CC1=C[C@]23C(=O)[C@@H](C=C(CO)[C@@H](O)[C@]2(O)[C@H]1OC(=O)c1ccccc1Br)[C@H]1[C@@H](C[C@H]3C)C1(C)C    96

Let's switch to this molecule now.
Ask | Give reported Emax value for CC1=C[C@]23C(=O)[C@@H](C=C(CO)[C@@H](O)[C@]2(O)[C@H]1OC(=O)c1ccccc1N)[C@H]1[C@@H](C[C@H]3C)C1(C)C
Reply | 112
